# Tested on: CEM cells HIV-1 protection, formazan growth assay
# protocolDescription: NCI AIDS Antiviral Assay;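 active = compounds giving half or more protection of infected cells from virus-caused growth loss, again on retest; inactive = the rest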
Permitted responses: active, inactive

{"columns": ["compound", "classAssignment"],
 "data": [
  ["COc1cc(Oc2c(O)c(C)c(OC)c(C(C)=O)c2O)c(C(C)=O)c(O)c1C", "inactive"]
]}

As a next step, examine the compound that follows.
Query :: Short answer needed: outcome of this test for Cc1cn([C@H]2C(CO)[C@@H](CO)C2(C)C)c(=O)[nH]c1=O (stereo partly drawn) ?
Result :: inactive

###

# Tested on: CEM cells HIV-1 protection, formazan growth assay
# protocolDescription: NCI AIDS Antiviral Assay
# reportedConditions: measured here: growth of uninfected CEM cells
Some molecules, each annotated with its measured pIC50.
By convention, pIC50 is the negative base-10 log of a molar concentration.

Consider the following illustrative entries.
{"columns": ["moleculeSmiles", "pIC50"],
 "data": [
  ["O=Nc1c(-c2ccccc2)nc2cnccn12", 5.23],
  ["CC1=CC=C2c3ccccc3C=CN2C(=O)C1", 4.05],
  ["COc1ccc2c(c1)CCCN2CCCCCCCCCCN(CCC(C)C)CCC(C)C", 5.02]
]}

Form field pIC50, entry CC[n+]1cnc(N)c2c(-c3ccc(Cl)cc3)cn(-c3ccc(C)cc3)c21 : 4.91

GET /value?item= Cc1ccc(S(=O)(=O)Oc2ccc3oc4c(CO)ccc(NCCN(C)C)c4c(=O)c3c2)cc1 &field=pIC50 returns 5.16

Quick note, pIC50 for COc1cc(C(c2c(O)c3ccccc3oc2=O)c2c(O)c3ccccc3oc2=O)cc(OC)c1O landed at 4.81

Consider CN(C)CCNC(=O)c1noc2c1CSc1ccccc1-2 . Its measured pIC50 is 4.55

These entries and their values trace back to PubChem BioAssay AID179.
